# Test system: Fibroblast
# testName: Multiplex assay against human fibroblast
# Format: toxicity, cell-based
# details: 24 h, 10 µM, compound concentration 10 uM, replicate 2
metricName: Population Healthy Nuclei (%)
// units = %; emit number, no label

Given the compound `NC(=O)c1cccc(-c2cc(Nc3ccc(OC(F)(F)F)cc3)ncn2)c1` and test system Fibroblast, the measured Population Healthy Nuclei (%) is 39

Given the compound `CCn1c(=O)c(-c2ccc(-c3cncs3)cc2Cl)cc2cnc(Nc3ccc(N4CCN(C)CC4)cc3)nc21` and test system Fibroblast, the measured Population Healthy Nuclei (%) is 71

Given the compound `CN1CCN(C(=O)C(C)(C)c2ccc(C(=O)Nc3cn4cc(-c5cc(C(C)(C)C)cc(C(C)(C)C)c5)ccc4n3)cc2)CC1` and test system Fibroblast, the measured Population Healthy Nuclei (%) is 30

Given the compound `Cc1ccc(C(=O)Nc2cccc(C(F)(F)F)c2)cc1Nc1nc(-c2cccnc2)nc2c1cnn2C` and test system Fibroblast, the measured Population Healthy Nuclei (%) is 11

Given the compound `Cl.Oc1ccc2c3c1O[C@H]1c4[nH]c5c(c4C[C@@]4(O)[C@@H](C2)N(CC2CC2)CC[C@]314)C[C@@]1(O)[C@H]2Cc3ccc(O)c4c3[C@@]1(CCN2CC1CC1)[C@H]5O4` and test system Fibroblast, the measured Population Healthy Nuclei (%) is 58

Given the compound `CCOc1cc(C(=O)N2CCC(N3CCN(C)CC3)CC2)ccc1Nc1ncc2c(n1)N(C1CCCC1)c1ccccc1C(=O)N2C` and test system Fibroblast, the measured Population Healthy Nuclei (%) is 30

Given the compound `CCOc1cc2ncc(C#N)c(Nc3ccc(OCc4ccccn4)c(Cl)c3)c2cc1NC(=O)/C=C/CN(C)C` and test system Fibroblast, the measured Population Healthy Nuclei (%) is 49

Given the compound `C=C1/C(=C\C=C2/CCC[C@]3(C)[C@@H]([C@H](C)/C=C/[C@H](C)C(C)C)CC[C@@H]23)C[C@@H](O)C[C@@H]1O` and test system Fibroblast, the measured Population Healthy Nuclei (%) is 70

Given the compound `CCN1CCN(c2ccc(Nc3cc(N(C)C(=O)Nc4c(Cl)c(OC)cc(OC)c4Cl)ncn3)cc2)CC1` and test system Fibroblast, the measured Population Healthy Nuclei (%) is 32

Given the compound `CNC(=O)c1ccc(Nc2nc(OC3CCCC3)c3c(-c4ccc5nc(C)oc5c4)c[nH]c3n2)c(OC)c1` and test system Fibroblast, the measured Population Healthy Nuclei (%) is 25

Given the compound `S=C(NCCCc1c[nH]cn1)NCCCN(Cc1ccc(Cl)c(Cl)c1)c1ccc(Br)cn1` and test system Fibroblast, the measured Population Healthy Nuclei (%) is 24

Given the compound `C=CCn1c(=O)c2cnc(Nc3ccc(N4CCN(C)CC4)cc3)nc2n1-c1cccc(C(C)(C)O)n1` and test system Fibroblast, the measured Population Healthy Nuclei (%) is 35

Given the compound CCOC(=O)c1c(C)[nH]c2ccc3c(c12)CN1CCc2cc(OC)ccc2C1O3 (centres undefined) and test system Fibroblast, the measured Population Healthy Nuclei (%) is 52

Given the compound `CCc1cccc(CC)c1NC(=O)c1nn(C)c2c1CCc1cnc(Nc3ccc(C(=O)NC4CCN(C)CC4)cc3OC(F)(F)F)nc1-2` and test system Fibroblast, the measured Population Healthy Nuclei (%) is 63

Given the compound `Cc1cc(C)c(S(=O)(=O)N(Cc2ccc(-c3cccc(S(C)(=O)=O)c3)cc2)Cc2ccc(C(F)(F)F)o2)c(C)c1` and test system Fibroblast, the measured Population Healthy Nuclei (%) is 71

Given the compound `CNc1cc(Oc2cc(C(=O)Nc3cc(N4CCN(C)CC4)cc(C(F)(F)F)c3)ccc2C)ncn1` and test system Fibroblast, the measured Population Healthy Nuclei (%) is 23

Given the compound CN(C)C(=O)C(CCN1CCC(O)(c2ccc(Cl)cc2)CC1)(c1ccccc1)c1ccccc1.Cl [LOPERAMIDE HYDROCHLORIDE] and test system Fibroblast, the measured Population Healthy Nuclei (%) is 26

Given the compound `O=C(Nc1cccnn1)N1CCC(=Cc2cccc(Oc3ccc(C(F)(F)F)cn3)c2)CC1` and test system Fibroblast, the measured Population Healthy Nuclei (%) is 38

Given the compound `O=C(Nc1ccc(-c2ccnc(Nc3ccc(N4CCOCC4)cc3)n2)cc1)[C@@H]1CCCN1` and test system Fibroblast, the measured Population Healthy Nuclei (%) is 64

Given the compound `COc1ccc(-c2ccc3c(N4CCOCC4)nc(N4C[C@@H](C)O[C@@H](C)C4)nc3n2)cc1CO` and test system Fibroblast, the measured Population Healthy Nuclei (%) is 20

Given the compound `Cc1ccc2nc(NCCN)c3ncc(C)n3c2c1.O=C(O)C(F)(F)F.O=C(O)C(F)(F)F` and test system Fibroblast, the measured Population Healthy Nuclei (%) is 35

Given the compound `CCCS(=O)(=O)Nc1ccc(F)c(C(=O)c2c[nH]c3ncc(Cl)cc23)c1F` and test system Fibroblast, the measured Population Healthy Nuclei (%) is 29

Given the compound `COc1cccc2cc(-c3nc([C@H]4CC[C@H](C(=O)O)CC4)n4ncnc(N)c34)[nH]c12` and test system Fibroblast, the measured Population Healthy Nuclei (%) is 34

Given the compound `COc1cc(N2CCN(C)CC2)ccc1Nc1ncc2c(n1)N(C)c1ccccc1C(=O)N2C` and test system Fibroblast, the measured Population Healthy Nuclei (%) is 63

---

Answer each item with its documented Population Healthy Nuclei (%).
# Test system: Fibroblast
# testName: Multiplex assay against human fibroblast
# Type: toxicity, cell-based
# details: 48 h, 10 µM, compound concentration 10 uM, replicate 2
// units = %; emit number, no label

Given the compound C=C1/C(=C\C=C2/CCC[C@]3(C)[C@@H]([C@H](C)/C=C/[C@H](C)C(C)C)CC[C@@H]23)C[C@@H](O)C[C@@H]1O [DOXERCALCIFEROL] and test system Fibroblast, the measured Population Healthy Nuclei (%) is 59

Given the compound Cc1cn(-c2cc(NC(=O)c3ccc(C)c(Nc4nccc(-c5cccnc5)n4)c3)cc(C(F)(F)F)c2)cn1 [NILOTINIB] and test system Fibroblast, the measured Population Healthy Nuclei (%) is 65

Given the compound CN1CCC(=C2c3ccccc3CC(=O)c3sccc32)CC1.O=C(O)/C=C/C(=O)O [KETOTIFEN FUMARATE] and test system Fibroblast, the measured Population Healthy Nuclei (%) is 64

Given the compound `CCOc1cc(C(=O)N2CCC(N3CCN(C)CC3)CC2)ccc1Nc1ncc2c(n1)N(C1CCCC1)c1ccccc1C(=O)N2C` and test system Fibroblast, the measured Population Healthy Nuclei (%) is 46

Given the compound CCOc1cc2ncc(C#N)c(Nc3ccc(OCc4ccccn4)c(Cl)c3)c2cc1NC(=O)/C=C/CN(C)C [NERATINIB] and test system Fibroblast, the measured Population Healthy Nuclei (%) is 56

Given the compound COCC(=O)NC/C=C/c1ccc2ncnc(Nc3ccc(Oc4ccc(C)nc4)c(C)c3)c2c1 [CP-724714] and test system Fibroblast, the measured Population Healthy Nuclei (%) is 61

Given the compound CCCn1c(=O)c2[nH]c(-c3cnn(Cc4cccc(C(F)(F)F)c4)c3)nc2n(CC)c1=O [GS 6201] and test system Fibroblast, the measured Population Healthy Nuclei (%) is 67

Given the compound `S=C(NCCCc1c[nH]cn1)NCCCN(Cc1ccc(Cl)c(Cl)c1)c1ccc(Br)cn1` and test system Fibroblast, the measured Population Healthy Nuclei (%) is 16

---

# Test system: HEK-293T
# testName: Multiplex assay against HEK293T
# Type: toxicity, cell-based
# details: human, 24 h, 1 µM, compound concentration 1 uM, replicate 2
metricName: Population Fragmented Nuclei (%)
// units = %; emit number, no label

Given the molecule `CCCS(=O)(=O)Nc1ccc(F)c(C(=O)c2c[nH]c3ncc(Cl)cc23)c1F` and test system HEK-293T, the measured Population Fragmented Nuclei (%) is 20

Given the molecule `COc1ccc(-c2ccc3c(N4CCOCC4)nc(N4C[C@@H](C)O[C@@H](C)C4)nc3n2)cc1CO` and test system HEK-293T, the measured Population Fragmented Nuclei (%) is 33

Given the molecule `Cc1ccc(C(=O)Nc2cccc(C(F)(F)F)c2)cc1Nc1nc(-c2cccnc2)nc2c1cnn2C` and test system HEK-293T, the measured Population Fragmented Nuclei (%) is 7

Given the molecule `COc1cccc2cc(-c3nc([C@H]4CC[C@H](C(=O)O)CC4)n4ncnc(N)c34)[nH]c12` and test system HEK-293T, the measured Population Fragmented Nuclei (%) is 7

Given the molecule `CN[C@@H]1C[C@H]2O[C@@](C)([C@@H]1OC)n1c3ccccc3c3c4c(c5c6ccccc6n2c5c31)C(=O)NC4` and test system HEK-293T, the measured Population Fragmented Nuclei (%) is 16

Given the molecule `CCc1cccc(CC)c1NC(=O)c1nn(C)c2c1CCc1cnc(Nc3ccc(C(=O)NC4CCN(C)CC4)cc3OC(F)(F)F)nc1-2` and test system HEK-293T, the measured Population Fragmented Nuclei (%) is 2

Given the molecule `O=C(Nc1cccnn1)N1CCC(=Cc2cccc(Oc3ccc(C(F)(F)F)cn3)c2)CC1` and test system HEK-293T, the measured Population Fragmented Nuclei (%) is 6

Given the molecule `Cl.Oc1ccc2c3c1O[C@H]1c4[nH]c5c(c4C[C@@]4(O)[C@@H](C2)N(CC2CC2)CC[C@]314)C[C@@]1(O)[C@H]2Cc3ccc(O)c4c3[C@@]1(CCN2CC1CC1)[C@H]5O4` and test system HEK-293T, the measured Population Fragmented Nuclei (%) is 7
